These entries and their values trace back to ChEMBL document CHEMBL1201861.

Test system: SNU1;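 note: growth inhibition of human NCI-SNU-1 cells, measured with a cell viability assay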
assay_text: cells
Assay type: functional, cell-based
condition_label: Homo sapiens
Description: SANGER: Inhibition of human NCI-SNU-1 cell growth in a cell viability assay.
quantity_kind: pIC50
The read-out pIC50 is expressed as -log10 of concentration in moles per litre.

Report pIC50 from SNU1 testing of `Fc1cc(-c2cc[nH]/c(=N/c3ccc(-n4cnc(N5CCOCC5)n4)cc3)n2)cc(N2CCOCC2)c1`
6.34

Report pIC50 from SNU1 testing of CC[C@@]1(O)C(=O)OCc2c1cc1n(c2=O)Cc2cc3ccccc3nc2-1 [CAMPTOTHECIN]
8.96

Report pIC50 from SNU1 testing of C/C=C(/C)C(=O)O[C@H]1C(C)=C2[C@H]([C@@H]1OC(=O)CCCCCCC)[C@@](C)(OC(C)=O)C[C@H](OC(=O)CCC)[C@@]1(O)[C@H]2OC(=O)[C@@]1(C)O [THAPSIGARGIN]
7.87

Report pIC50 from SNU1 testing of Cc1n[nH]c2ccc(-c3cncc(OC[C@@H](N)Cc4c[nH]c5ccccc45)c3)cc12 [A-443654]
6.40

###

Tested on: COLO-679
assay_text: cells
Assay type: functional, cell-based
condition_label: Homo sapiens
Description: SANGER: Inhibition of human COLO-679 cell growth in a cell viability assay.
What pIC50 was measured for each of the following?
The read-out pIC50 is expressed as -log10 of concentration in moles per litre.

Give the measured pIC50 for CC(C)=CC[C@@H](O)C1=CC(=O)c2c(O)ccc(O)c2C1=O [SHIKONIN]
6.74

Give the measured pIC50 for C[C@]12O[C@H](C[C@]1(O)CO)n1c3ccccc3c3c4c(c5c6ccccc6n2c5c31)CNC4=O [LESTAURTINIB]
6.42

Give the measured pIC50 for CCCS(=O)(=O)Nc1ccc(F)c(C(=O)c2c[nH]c3ncc(Cl)cc23)c1F [PLX-4720]
5.96

###

What IC50 was measured for each of the following?
System: SJSA-1;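 note: growth inhibition of human SJSA-1 cells, read out through a cell viability measurement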
assay_text: cells
Format: functional, cell-based
condition_label: Homo sapiens
Description: SANGER: Inhibition of human SJSA-1 cell growth in a cell viability assay.
The answer is to be given in µM; state only the numeric part.

Give the measured IC50 for CC(C)=CC[C@@H](O)C1=CC(=O)c2c(O)ccc(O)c2C1=O [SHIKONIN]
5.53

Give the measured IC50 for CC(=O)c1c(C)c2cnc(Nc3ccc(N4CCNCC4)cn3)nc2n(C2CCCC2)c1=O [PALBOCICLIB]
2.38

Give the measured IC50 for COc1cc(C)c(Sc2cnc(NC(=O)c3ccc(CNC(C)C(C)(C)C)cc3)s2)cc1C(=O)N1CCN(C(C)=O)CC1 (stereo not drawn)
7.63

Give the measured IC50 for `NC(=O)c1ncn([C@@H]2O[C@H](COP(=O)(O)O)[C@@H](O)[C@H]2O)c1N`
949

###

Tested on: NEC8;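 note: growth inhibition of human NEC8 cells, read out by a cell viability assay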
assay_text: cells
Assay type: functional, cell-based
condition_label: Homo sapiens
Description: SANGER: Inhibition of human NEC8 cell growth in a cell viability assay.
pIC50: −log10 of the molar value.
quantity_kind: pIC50

Give the measured pIC50 for `Cn1cc(/C=C2\C(=O)Nc3cccnc32)c2ccccc21`
5.91

Give the measured pIC50 for `N#C/C(=C1/Nc2ccccc2S1)c1ccnc(NCCc2cccnc2)n1`
< 5.10

Give the measured pIC50 for `Cc1ccc(NC(=O)c2cccc(C(C)(C)C#N)c2)cc1Nc1ccc2ncn(C)c(=O)c2c1`
< 5.40

Give the measured pIC50 for `Cc1nc(Nc2ncc(C(=O)Nc3c(C)cccc3Cl)s2)cc(N2CCN(CCO)CC2)n1`
< 5.89

Give the measured pIC50 for `COc1cc(Nc2c(C#N)cnc3cc(OCCCN4CCN(C)CC4)c(OC)cc23)c(Cl)cc1Cl`
< 5.70

###

Test system: KM-H2
assay_text: cells
Format: functional, cell-based
condition_label: Homo sapiens
Description: SANGER: Inhibition of human KM-H2 cell growth in a cell viability assay.
quantity_kind: pIC50
The read-out pIC50 is expressed as -log10 of concentration in moles per litre.

Give the measured pIC50 for `Cn1c(=O)n(-c2ccc(C(C)(C)C#N)cc2)c2c3cc(-c4cnc5ccccc5c4)ccc3ncc21`
6.77

Give the measured pIC50 for `CCNC(=O)c1noc(-c2cc(C(C)C)c(O)cc2O)c1-c1ccc(CN2CCOCC2)cc1`
7.14

Give the measured pIC50 for `CC[C@]1(O)C[C@@H]2CN(CCc3c([nH]c4ccccc34)[C@@](C(=O)OC)(c3cc4c(cc3OC)N(C)[C@H]3[C@@](O)(C(=O)OC)[C@H](OC(C)=O)[C@]5(CC)C=CCN6CC[C@]43[C@@H]65)C2)C1`
8.27

Give the measured pIC50 for `CO[C@@]12[C@H](COC(N)=O)C3=C(C(=O)C(C)=C(N)C3=O)N1C[C@@H]1N[C@@H]12`
6.88

###

System: CTV-1;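 note: growth inhibition of the cell line, read out with a cell viability assay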
assay_text: cells
Type: functional, cell-based
condition_label: Homo sapiens
Description: SANGER: Inhibition of human CTV-1 cell growth in a cell viability assay.
What IC50 was measured for each of the following?

Give the measured IC50 for `CCCS(=O)(=O)Nc1ccc(F)c(C(=O)c2c[nH]c3ncc(Cl)cc23)c1F`
> 10 µM

Give the measured IC50 for `C[C@]12O[C@H](C[C@]1(O)CO)n1c3ccccc3c3c4c(c5c6ccccc6n2c5c31)CNC4=O`
0.189 µM

Give the measured IC50 for COc1cc(C)c(Sc2cnc(NC(=O)c3ccc(CNC(C)C(C)(C)C)cc3)s2)cc1C(=O)N1CCN(C(C)=O)CC1 (configuration not stated)
6.3 µM

Give the measured IC50 for `N#C/C(=C1/Nc2ccccc2S1)c1ccnc(NCCc2cccnc2)n1`
2.85 µM

Give the measured IC50 for `O=c1[nH]c2ccccc2n1C1CCN(Cc2ccc(-c3nc4cc5[nH]cnc5cc4nc3-c3ccccc3)cc2)CC1`
> 2.56 µM

Give the measured IC50 for CC(O)(CS(=O)(=O)c1ccc(F)cc1)C(=O)Nc1ccc(C#N)c(C(F)(F)F)c1 (configuration not stated) [BICALUTAMIDE]
> 1.02 µM

Give the measured IC50 for `Cc1n[nH]c2ccc(-c3cncc(OC[C@@H](N)Cc4c[nH]c5ccccc45)c3)cc12`
0.323 µM

###

What pIC50 was measured for each of the following?
Test system: M14
assay_text: cells
Type: functional, cell-based
condition_label: Homo sapiens
Description: SANGER: Inhibition of human M14 cell growth in a cell viability assay.
pIC50: −log10 of the molar value.

Report pIC50 from M14 testing of `CC(=O)c1c(C)c2cnc(Nc3ccc(N4CCNCC4)cn3)nc2n(C2CCCC2)c1=O`
< 5.40

Report pIC50 from M14 testing of `Cn1cc(/C=C2\C(=O)Nc3cccnc32)c2ccccc21`
< 5.70

Report pIC50 from M14 testing of `O=c1[nH]c2ccccc2n1C1CCN(Cc2ccc(-c3nc4cc5[nH]cnc5cc4nc3-c3ccccc3)cc2)CC1`
< 5.59

###

Test system: K562
assay_text: cells
Format: functional, cell-based
condition_label: Homo sapiens
Description: SANGER: Inhibition of human K-562 cell growth in a cell viability assay.
pIC50: −log10 of the molar value.
What pIC50 was measured for each of the following?

Give the measured pIC50 for `C/C=C(/C)C(=O)O[C@H]1C(C)=C2[C@H]([C@@H]1OC(=O)CCCCCCC)[C@@](C)(OC(C)=O)C[C@H](OC(=O)CCC)[C@@]1(O)[C@H]2OC(=O)[C@@]1(C)O`
6.52

Give the measured pIC50 for `CCCS(=O)(=O)Nc1ccc(F)c(C(=O)c2c[nH]c3ncc(Cl)cc23)c1F`
< 5.00

Give the measured pIC50 for `Cc1[nH]c(/C=C2\C(=O)Nc3ccc(S(=O)(=O)Cc4c(Cl)cccc4Cl)cc32)c(C)c1C(=O)N1CCC[C@@H]1CN1CCCC1`
< 5.70

Give the measured pIC50 for COc1cc(C)c(Sc2cnc(NC(=O)c3ccc(CNC(C)C(C)(C)C)cc3)s2)cc1C(=O)N1CCN(C(C)=O)CC1 (centres undefined)
< 4.99

###

System: HCC2218;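 note: cell viability assay read-out, with IC50 given as the concentration that inhibits growth of the cell line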
assay_text: cells
Type: functional, cell-based
condition_label: Homo sapiens
Description: SANGER: Inhibition of human HCC2218 cell growth in a cell viability assay.
What pIC50 was measured for each of the following?
The read-out pIC50 is expressed as -log10 of concentration in moles per litre.

Give the measured pIC50 for `CC(=O)c1c(C)c2cnc(Nc3ccc(N4CCNCC4)cn3)nc2n(C2CCCC2)c1=O`
5.63

Give the measured pIC50 for `Cc1n[nH]c2ccc(-c3cncc(OC[C@@H](N)Cc4c[nH]c5ccccc45)c3)cc12`
6.57

Give the measured pIC50 for `CC[C@]1(O)C[C@@H]2CN(CCc3c([nH]c4ccccc34)[C@@](C(=O)OC)(c3cc4c(cc3OC)N(C)[C@H]3[C@@](O)(C(=O)OC)[C@H](OC(C)=O)[C@]5(CC)C=CCN6CC[C@]43[C@@H]65)C2)C1`
7.10

###

What IC50 was measured for each of the following?
System: MIA PaCa-2
assay_text: cells
Assay type: functional, cell-based
condition_label: Homo sapiens
Description: SANGER: Inhibition of human MIA-PaCa-2 cell growth in a cell viability assay.

Give the measured IC50 for `CO[C@@]12[C@H](COC(N)=O)C3=C(C(=O)C(C)=C(N)C3=O)N1C[C@@H]1N[C@@H]12`
0.275 µM

Give the measured IC50 for `NC(=O)c1ncn([C@@H]2O[C@H](COP(=O)(O)O)[C@@H](O)[C@H]2O)c1N`
> 2000 µM

Give the measured IC50 for `Fc1cc(-c2cc[nH]/c(=N/c3ccc(-n4cnc(N5CCOCC5)n4)cc3)n2)cc(N2CCOCC2)c1`
1.4 µM

Give the measured IC50 for CC(O)(CS(=O)(=O)c1ccc(F)cc1)C(=O)Nc1ccc(C#N)c(C(F)(F)F)c1 (centres undefined) [BICALUTAMIDE]
> 1.02 µM
